Values were extracted from patent US20160152728A1.

Here the recorded KD improvement factor vs parental scFv Li3G30 is given for each entry.
# study-system: EGFRvIII-Fc fusion antigen (human, UniProt P00533 25-645)
# protocol-description: SPR Biacore T200, EGFRvIII-Fc captured via anti-hu Fc, scFv analyte, 1:1 model;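 further: Multi-cycle kinetics on a CM5 chip in HBS-P+ running buffer, 180 s scFv association then 540 s dissociation, with blank flow cell signals subtracted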
Reply numerically in fold, unit not repeated.

Indicate its recorded KD improvement factor vs parental scFv Li3G30; the binder in question is scFv 470 (scFv, V domains shown, One-chain scFv, His-tagged) VH: EVQLVQSGAEVKKPGESLKISCKGSGYSFNSYWIGWVRQMPGKGLEWMGIIYPGDSDTRYSPSFQGQVTISADKSISTAYLQWSSLKASDTAMYYCARLGSSWTNDAFDIWGQGTLVTVSS VL: SYELTQPPSVSVSPGQTARITCSGDALDKQYAYWYQQKPGQAPVLVIYKDSERPSGIPERFSGSSSGTTVTLTISGVQAEDEADYYCQSVDSSETYVVFGGGTKLTVL 6.6

Consider the additional binder presented here.
Report measured KD improvement factor vs parental scFv Li3G30; entry is scFv 474 (scFv, V domains shown, One-chain scFv, His-tagged) VH: EVQLVQSGAEVKKPGESLKISCKGSGYSFSHYWIGWVRQMPGKGLEWMGITYPGDVDTRYDPSFQGQVTISADKSISTAYLQWSSLKASDTAMYYCARLGSSWTNDAFDIWGQGTLVTVSS VL: SYELTQPPSVSVSPGQTARITCSGDALPKTYAYWYQQKPGQAPVLVIYKDTERPSGIPERFSGSSSGTTVTLTISGVQAEDEADYYCQSADSSGTYLVFGGGTKLTVL 16.3
